We begin with a simple list: items and their reported pIC50.
measured-target: EGFR^L58R/T790M (Homo sapiens, UniProt P00533, L858R/T790M)
Sequence (P00533 25-1210 T790M/L858R): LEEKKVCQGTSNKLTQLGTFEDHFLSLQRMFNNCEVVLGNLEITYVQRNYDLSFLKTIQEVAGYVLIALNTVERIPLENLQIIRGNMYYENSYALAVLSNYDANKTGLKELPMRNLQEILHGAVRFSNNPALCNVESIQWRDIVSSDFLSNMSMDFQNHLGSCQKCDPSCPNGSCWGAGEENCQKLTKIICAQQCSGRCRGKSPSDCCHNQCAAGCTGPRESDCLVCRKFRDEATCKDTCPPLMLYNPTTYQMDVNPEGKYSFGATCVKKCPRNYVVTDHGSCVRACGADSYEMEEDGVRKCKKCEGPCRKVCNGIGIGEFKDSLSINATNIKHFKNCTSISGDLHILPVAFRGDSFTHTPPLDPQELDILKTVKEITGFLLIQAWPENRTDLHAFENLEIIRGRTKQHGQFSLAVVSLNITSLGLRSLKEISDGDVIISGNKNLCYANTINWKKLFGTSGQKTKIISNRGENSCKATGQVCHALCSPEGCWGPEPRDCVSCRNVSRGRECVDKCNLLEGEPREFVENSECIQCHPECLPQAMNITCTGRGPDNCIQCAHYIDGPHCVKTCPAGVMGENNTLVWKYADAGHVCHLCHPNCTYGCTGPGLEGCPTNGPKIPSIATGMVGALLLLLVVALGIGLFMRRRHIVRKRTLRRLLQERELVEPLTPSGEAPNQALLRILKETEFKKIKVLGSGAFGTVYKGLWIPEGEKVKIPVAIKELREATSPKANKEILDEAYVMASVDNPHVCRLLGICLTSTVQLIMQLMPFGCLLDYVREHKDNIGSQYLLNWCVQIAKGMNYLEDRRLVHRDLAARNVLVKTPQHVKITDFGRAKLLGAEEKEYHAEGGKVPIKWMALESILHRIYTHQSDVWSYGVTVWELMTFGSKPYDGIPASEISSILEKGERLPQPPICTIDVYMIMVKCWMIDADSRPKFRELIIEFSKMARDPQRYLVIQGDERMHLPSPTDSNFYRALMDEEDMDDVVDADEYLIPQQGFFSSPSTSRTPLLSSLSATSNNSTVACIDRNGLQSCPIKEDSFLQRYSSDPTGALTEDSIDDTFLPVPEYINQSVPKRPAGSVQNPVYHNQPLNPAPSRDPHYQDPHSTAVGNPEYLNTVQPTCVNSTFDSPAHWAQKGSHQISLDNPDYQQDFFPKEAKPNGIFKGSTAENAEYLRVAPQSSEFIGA
assay-details: in vitro kinase assay (HTRF KinEASE-TK kit), LT
condition: kinase inhibition
pIC50: −log10 of the molar value.

[Q] Consider the molecule shown here: C[C@H]1CCOc2c(cnn2C)-c2nccc(n2)Nc2cc3c(cn2)c(-c2ncc(CN(C)C)s2)nn31 What is its recorded pIC50?
[A] > 8.00

[Q] Consider the molecule shown here: C[C@H]1CCOc2c(cnn2C)-c2nccc(n2)Nc2cc3c(cn2)c(-c2ccc(CN(C)C)n2C)nn31 What is its recorded pIC50?
[A] > 8.00

[Q] Consider the molecule shown here: C[C@H]1CCOc2c(cnn2C)-c2nccc(n2)Nc2cc3c(cn2)c(N2CC[C@H](N(C)C)C2)nn31 What is its recorded pIC50?
[A] > 8.00

[Q] Consider the molecule shown here: COCCN(C)Cc1ccc(-c2nn3c4cc(ncc24)Nc2ccnc(n2)-c2cnn(C)c2OCC[C@@H]3C)n1C What is its recorded pIC50?
[A] > 8.00

[Q] Consider the molecule shown here: CCC1CCOc2c(cnn2C)-c2nccc(n2)Nc2cc3c(cn2)c(N2CCC2)nn31 (stereo not shown) What is its recorded pIC50?
[A] > 8.00

[Q] Consider the molecule shown here: C[C@H]1CCOc2c(cnn2C)-c2nccc(n2)Nc2cc3c(cn2)c(-c2cccc(N4CCC(O)CC4)c2)nn31 What is its recorded pIC50?
[A] > 8.00

[Q] Consider the molecule shown here: CCN1CCC(Oc2cc(F)cc(-c3nn4c5cc(ncc35)Nc3ccnc(n3)-c3cnn(C)c3OCC[C@@H]4C)c2)CC1 What is its recorded pIC50?
[A] > 8.00

[Q] Consider the molecule shown here: CCN(CC)C1CCN(c2cc(F)cc(-c3nn4c5cc(ncc35)Nc3ccnc(n3)-c3cnn(C)c3OCC[C@@H]4C)c2)CC1 What is its recorded pIC50?
[A] > 8.00

[Q] Consider the molecule shown here: CC1CCCOc2c(cnn2C)-c2nccc(n2)Nc2cc3c(cn2)c(N2CCCC2)nn31 (stereo not shown) What is its recorded pIC50?
[A] > 8.00

[Q] Consider the molecule shown here: C[C@H]1CCOc2c(cnn2C)-c2nccc(n2)Nc2cc3c(cn2)c(-c2nn(C)cc2CCN(C)C)nn31 What is its recorded pIC50?
[A] > 8.00

[Q] Consider the molecule shown here: Cn1ncc2c1OCCCn1nc(N3CCCC3CO)c3cnc(cc31)Nc1ccnc-2n1 (stereo not shown) What is its recorded pIC50?
[A] > 8.00

[Q] Consider the molecule shown here: C[C@H]1CCOc2c(cnn2C)-c2nccc(n2)Nc2cc3c(cn2)c(N2CCC2)nn31 What is its recorded pIC50?
[A] > 8.00

[Q] Consider the molecule shown here: CCN(CC)CCOc1cc(-c2nn3c4cc(ncc24)Nc2ccnc(n2)-c2cnn(C)c2OCC[C@@H]3C)ccc1F What is its recorded pIC50?
[A] > 8.00

[Q] Consider the molecule shown here: C[C@H]1CCOc2c(cnn2C)-c2nccc(n2)Nc2cc3c(cn2)c(N2CC[C@@H](N(C)C)C2)nn31 What is its recorded pIC50?
[A] > 8.00

[Q] Consider the molecule shown here: CCCN(C)Cc1ccc(-c2nn3c4cc(ncc24)Nc2ccnc(n2)-c2cnn(C)c2OCC[C@@H]3C)n1C What is its recorded pIC50?
[A] > 8.00

[Q] Consider the molecule shown here: C[C@H]1CCOc2c(cnn2C)-c2nccc(n2)Nc2cc3c(cn2)c(-c2ccc(F)c(OCCN4CCOCC4)c2)nn31 What is its recorded pIC50?
[A] > 8.00
